Tested on: 362531-283-R-J2-PDC complex spheroid viability;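 also: spheroids exposed to the agents for 7 days before readout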
Assay: Anticancer human tumor 362531-283-R-J2-PDC patient-derived colon adenocarcinoma cell line growth inhibition [RAS]
Conditions: curve of first compound; second compound 0.003 µM
Description: RAS pathway inhibitors in Combinations in Complex Spheroids A high-throughput screen of multi-cell type tumor spheroids was designed to identify active combinations of RAS pathway inhibitors and targeted small molecules. Complex spheroids include a stromal component modeled by human endothelial cells (HUVEC) and fibroblasts modeled by human mesenchymal stem cells (MSCs). […] Compounds. […] If the clinical Cmax for an agent had not been determined, the highest concentration tested was 10 microM. […]
pIC50: −log10 of the molar value.

- Molecule: "NC1c2ccccc2OC12CCN(c1cnc3c(N4CCCc5ncccc54)n[nH]c3n1)CC2 (stereo not drawn) + CCn1c(-c2cc(N3CCN(C)CC3)cnc2C(C)OC)c2c3cc(ccc31)-c1csc(n1)CC(NC(=O)C1CC1C)C(=O)N1CCCC(N1)C(=O)OCC(C)(C)C2"
  Censoring sign: "="
  pIC50: 6.01
- Molecule: "Cc1nc(N2CCC3(CC2)COC(C)C3N)c(CO)nc1Sc1ccnc(N)c1Cl (stereo not drawn) + CCn1c(-c2cc(N3CCN(C)CC3)cnc2C(C)OC)c2c3cc(ccc31)-c1csc(n1)CC(NC(=O)C1CC1C)C(=O)N1CCCC(N1)C(=O)OCC(C)(C)C2"
  Censoring sign: "<"
  pIC50: 5.00
- Molecule: "CCN1CCN(Cc2ccc(Nc3ncc(F)c(-c4cc(F)c5nc(C)n(C(C)C)c5c4)n3)nc2)CC1 + CCn1c(-c2cccnc2C(C)OC)c2c3cc(ccc31)N1CCOC(CC(NC(=O)C(C(C)C)N(C)C(=O)C3(F)CCN(C(=O)C#CC(C)(C)N(C)C)CC3)C(=O)N3CCCC(N3)C(=O)OCC(C)(C)C2)C1"
  Censoring sign: "="
  pIC50: 6.14
- Molecule: "CCC(CC)c1cc(NC2CCC(N)C2)n2nccc2n1 (stereo not drawn) + CCn1c(-c2cc(N3CCN(C)CC3)cnc2C(C)OC)c2c3cc(ccc31)-c1csc(n1)CC(NC(=O)C1CC1C)C(=O)N1CCCC(N1)C(=O)OCC(C)(C)C2"
  Censoring sign: "="
  pIC50: 5.34
- Molecule: "NC1c2ccccc2OC12CCN(c1cnc3c(N4CCCc5ncccc54)n[nH]c3n1)CC2 (stereo not drawn) + CCn1c(-c2cccnc2C(C)OC)c2c3cc(ccc31)N1CCOC(CC(NC(=O)C(C(C)C)N(C)C(=O)C3(F)CCN(C(=O)C#CC(C)(C)N(C)C)CC3)C(=O)N3CCCC(N3)C(=O)OCC(C)(C)C2)C1"
  Censoring sign: "<"
  pIC50: 5.00
- Molecule: "Nc1ccn(C2OC(CO)C(O)C2(F)F)c(=O)n1 (stereo not drawn) + CCn1c(-c2cccnc2C(C)OC)c2c3cc(ccc31)N1CCOC(CC(NC(=O)C(C(C)C)N(C)C(=O)C3(F)CCN(C(=O)C#CC(C)(C)N(C)C)CC3)C(=O)N3CCCC(N3)C(=O)OCC(C)(C)C2)C1"
  Censoring sign: "="
  pIC50: 6.82
- Molecule: "CC(C)NCC(C(=O)N1CCN(c2ncnc3c2C(C)CC3O)CC1)c1ccc(Cl)cc1 (stereo not drawn) + CCn1c(-c2cc(N3CCN(C)CC3)cnc2C(C)OC)c2c3cc(ccc31)-c1csc(n1)CC(NC(=O)C1CC1C)C(=O)N1CCCC(N1)C(=O)OCC(C)(C)C2"
  Censoring sign: "<"
  pIC50: 5.00
- Molecule: "C=CC(=O)Nc1cc(Nc2nccc(-c3cn(C)c4ccccc34)n2)c(OC)cc1N(C)CCN(C)C + CCn1c(-c2cccnc2C(C)OC)c2c3cc(ccc31)N1CCOC(CC(NC(=O)C(C(C)C)N(C)C(=O)C3(F)CCN(C(=O)C#CC(C)(C)N(C)C)CC3)C(=O)N3CCCC(N3)C(=O)OCC(C)(C)C2)C1"
  Censoring sign: "<"
  pIC50: 6.00
